Test: FaSSIF solubility (Fasted State Simulated Intestinal Fluid)
Format: physicochemical
Details: thermodynamic from solid, FaSSIF pH 6.5, 4 h equilibration at room temperature, dynamic range 1-1000 μg/mL
Method: 1 mL of FaSSIF buffer (3 mM sodium taurocholate, 0.75 mM lecithin in sodium phosphate buffer at pH 6.5) was added to manually weighed 1 mg of the solid compound in a 4 mL vial. […] The residual solid was removed by filtration. The supernatant solution was quantified by HPLC-UV using single point calibration of a known concentration of the compound in DMSO. The dynamic range of the assay was 1-1000 μg/mL.
Structures can show the parent of a compound that is named as a salt.
measurement-label: solubility at 4 h (µg/mL)

FC(F)(F)c1n[nH]c(-c2nc3ncccn3c2-c2c[nH]cn2)n1 :: 4

A: Fc1cnc2nc(-c3nc(C(F)(F)F)n[nH]3)c(-c3cnc[nH]3)n2c1
B: CNCCOC(=O)OCn1nc(C(F)(F)F)nc1-c1nc2ncccn2c1-c1cnc[nH]1 [Example 28, trifluoroacetic acid salt]
Query: Could you determine which record has the numerically smaller solubility at 4 h? Candidates: A and B When you have decided, please share the label of that item.
Result: A

---

Experiment: FaSSIF solubility (Fasted State Simulated Intestinal Fluid)
Assay type: physicochemical
Details: thermodynamic from solid, FaSSIF pH 6.5, 4 h equilibration at room temperature, dynamic range 1-1000 μg/mL
Procedure: 1 mL of FaSSIF buffer (3 mM sodium taurocholate, 0.75 mM lecithin in sodium phosphate buffer at pH 6.5) was added to manually weighed 1 mg of the solid compound in a 4 mL vial. […] The residual solid was removed by filtration. The supernatant solution was quantified by HPLC-UV using single point calibration of a known concentration of the compound in DMSO. The dynamic range of the assay was 1-1000 μg/mL.
Structures can show the parent of a compound that is named as a salt.
measurement-label: solubility at 4 h (µg/mL)

CC(C)[C@H](N)C(=O)OCn1cnc(-c2c(-c3nc(C(F)(F)F)nn3COC(=O)[C@@H](N)C(C)C)nc3ncccn23)c1 [Example 24, trifluoroacetic acid salt] :: 324

A: O=C(O)CCC(=O)OCn1cnc(-c2c(-c3nc(C(F)(F)F)n[nH]3)nc3ncccn23)c1
B: CNCCOC(=O)OCn1cnc(-c2c(-c3nc(C(F)(F)F)nn3COC(=O)OCCNC)nc3ncccn23)c1 [Example 27, trifluoroacetic acid salt]
Query: # argmax over solubility at 4 h for candidates A and B // return label of chosen record
Result: A
(A: 455 µg/mL, B: 298 µg/mL)

---

target: human CGAS (157-522) (Homo sapiens, UniProt Q8N884)
Sequence (Q8N884 157-522): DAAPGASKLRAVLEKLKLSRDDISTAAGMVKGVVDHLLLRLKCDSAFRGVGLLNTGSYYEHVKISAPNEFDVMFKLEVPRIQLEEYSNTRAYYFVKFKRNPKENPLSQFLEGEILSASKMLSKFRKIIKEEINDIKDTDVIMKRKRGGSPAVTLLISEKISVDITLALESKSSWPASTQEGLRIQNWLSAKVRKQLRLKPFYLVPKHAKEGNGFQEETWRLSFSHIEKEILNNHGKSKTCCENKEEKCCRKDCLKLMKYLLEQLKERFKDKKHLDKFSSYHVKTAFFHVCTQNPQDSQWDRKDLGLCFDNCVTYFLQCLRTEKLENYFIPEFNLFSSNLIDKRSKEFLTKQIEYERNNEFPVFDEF
Where a name gives a salt, the structure may show the parent alone.
measurement-label: IC50 (nM)

FC(F)(F)c1n[nH]c(-c2nc3ncc(COC4CCC4)cn3c2-c2c[nH]cn2)n1 [Example 157] :: 2.51
Brc1n[nH]c(-c2nc3ncccn3c2-c2c[nH]cn2)n1 [Example 37, trifluoroacetic acid salt] :: 3.16
O=C(O)c1ccn2c(-c3c[nH]cn3)c(-c3nc(C(F)(F)F)n[nH]3)nc2n1 [Example 102] :: 3.16

---

biological target: human CGAS (157-522) (Homo sapiens, UniProt Q8N884);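 further: biochemical enzyme reaction, 2′3′-cGAMP product measured by RapidFire mass spectrometry (MRM) normalised to c-di-UMP internal standard, inhibition of product formation relative to high and low control wells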
pIC50: −log10 of the molar value. Structures can show the parent of a compound that is named as a salt.
measurement-label: pIC50

The cases that follow already have their pIC50 on record.
FC(F)(F)c1n[nH]c(-c2nc3nc4c(cn3c2-c2c[nH]cn2)COC4)n1 [Example 10, trifluoroacetic acid salt] :: 8.20
O=C(CCCOP(=O)(O)O)OCn1cnc(-c2c(-c3nc(C(F)(F)F)nn3COC(=O)CCCOP(=O)(O)O)nc3ncccn23)c1 [Example 30, trifluoroacetic acid salt] :: 6.50
COCC(C)COCc1cnc2nc(-c3nc(C(F)(F)F)n[nH]3)c(-c3cnc[nH]3)n2c1 (stereo not drawn) :: 8.10
FC(F)c1n[nH]c(-c2nc3nc(C(F)(F)F)ccn3c2-c2cnc[nH]2)n1 :: 8.30

1: OC1CCCN(c2ccn3c(-c4cnc[nH]4)c(-c4nc(C(F)(F)F)n[nH]4)nc3n2)C1 (stereo not drawn)
2: FC(F)(F)c1n[nH]c(-c2nc3ncccn3c2-c2cn[nH]c2)n1 [Example 11, trifluoroacetic acid salt]
Query: Larger number for pIC50: 1 , or 2 ? In your reply, give the label of the chosen option.
Result: 2

P: FC(F)(F)COCc1cnc2nc(-c3nc(C(F)(F)F)n[nH]3)c(-c3cnc[nH]3)n2c1
Q: CNCC(=O)OCc1cccnc1N(C)C(=O)OC(C)n1cncc1-c1c(-c2nc(C(F)(F)F)n[nH]2)nc2ncccn12 (stereo not drawn) [Example 25, hydrochloride salt]
Query: Recorded pIC50 values differ for P and Q ; which one is higher? Identify your pick by its label.
Result: P

A: FC(F)(F)c1ccn2c(-c3cnc[nH]3)c(-c3ncn[nH]3)nc2n1
B: Cc1cn(C)c(COCc2cnc3nc(-c4nc(C(F)(F)F)n[nH]4)c(-c4c[nH]cn4)n3c2)n1
Query: Between these two entries, A and B , state which has the higher pIC50. Field: selected label. Fill in the label of the entry you choose.
Result: B
(B: 8.10, A: 5.10)

P: COC(C)c1cnc2nc(-c3nc(C(F)(F)F)n[nH]3)c(-c3c[nH]cn3)n2c1 (stereo not drawn)
Q: OC1CCN(c2ccn3c(-c4cnc[nH]4)c(-c4nc(C(F)(F)F)n[nH]4)nc3n2)C1 (stereo not drawn)
R: CC(=O)OCn1cnc(-c2c(-c3nc(C(F)(F)F)nn3COC(C)=O)nc3ncccn23)c1
Query: Ascending by pIC50, please: list the compounds accordingly. Your reply should list the labels following the order given in the request.
Result: R, Q, P
